Catalogue of POST-Emergent Herbicidal (phytotoxicity rating), Cotton values
test system: Cotton; test: Phytotoxicity test, cotton; assay type: in vivo; parameters: key: 1: no perceptible injury; 2: intermediate degrees of injury based upon the number and extent to which leaves were injured; 3: intermediate degrees of injury based upon the number and extent to which leaves were injured; 4: intermediate degrees of injury based upon the number and extent to which leaves were injured; 5: the plant was dead; details: 2500 ppm spray, after ten days
Answer as a number with no unit attached.

Some compounds with known POST-Emergent Herbicidal (phytotoxicity rating), Cotton results, for comparison:
{"columns": ["smiles-structure", "assayed-system", "number"],
 "data": [
  ["CCCCCCCCCCCC[N+](C)(C)CC(=O)N(C)C(=O)Oc1cccc2c1OC(C)(C)C2", "Cotton", 2],
  ["CN(C(=O)C[N+](C)(C)C)C(=O)Oc1cccc2c1OC(C)(C)C2", "Cotton", 2],
  ["CN(C(=O)C[n+]1ccc(N(C)C)cc1)C(=O)Oc1cccc2c1OC(C)(C)C2", "Cotton", 1],
  ["CN(C(=O)C[N+]1(C)CCCC1)C(=O)Oc1cccc2c1OC(C)(C)C2", "Cotton", 2]
]}

Reported POST-Emergent Herbicidal (phytotoxicity rating), Cotton for CCCCCCCCCCCCCCCCCC[N+](C)(C)CC(=O)N(C)C(=O)Oc1cccc2c1OC(C)(C)C2 : what is it? 2

Reported POST-Emergent Herbicidal (phytotoxicity rating), Cotton for CN(C(=O)C[n+]1ccn(C)c1)C(=O)Oc1cccc2c1OC(C)(C)C2 : what is it? 1

----------
Catalogue of POST-Emergent Herbicidal (phytotoxicity rating), Corn values
tested on: Corn; test: Phytotoxicity test, corn; type: in vivo; set-up: key: 1: no perceptible injury; 2: intermediate degrees of injury based upon the number and extent to which leaves were injured; 3: intermediate degrees of injury based upon the number and extent to which leaves were injured; 4: intermediate degrees of injury based upon the number and extent to which leaves were injured; 5: the plant was dead; conditions: 2500 ppm spray, after ten days
Answer as a number with no unit attached.

Some molecules with known POST-Emergent Herbicidal (phytotoxicity rating), Corn results, for comparison:
{"columns": ["smiles-structure", "number"],
 "data": [
  ["CN(C(=O)C[n+]1ccn(C)c1)C(=O)Oc1cccc2c1OC(C)(C)C2", 1],
  ["CN(C(=O)C[n+]1ccc(N(C)C)cc1)C(=O)Oc1cccc2c1OC(C)(C)C2", 1],
  ["CCCCCCCCCCCCCCCCCC[N+](C)(C)CC(=O)N(C)C(=O)Oc1cccc2c1OC(C)(C)C2", 2],
  ["CN(C(=O)C[N+]1(C)CCCC1)C(=O)Oc1cccc2c1OC(C)(C)C2", 1],
  ["CCCCCCCCCCCC[N+](C)(C)CC(=O)N(C)C(=O)Oc1cccc2c1OC(C)(C)C2", 2]
]}

Next item in the queue.
Reported POST-Emergent Herbicidal (phytotoxicity rating), Corn for CN(C(=O)C[N+](C)(C)C)C(=O)Oc1cccc2c1OC(C)(C)C2 : what is it? 1

----------
tested on: Tomato; test: Phytotoxicity test, tomato; assay type: in vivo; parameters: key: 1: no perceptible injury; 2: intermediate degrees of injury based upon the number and extent to which leaves were injured; 3: intermediate degrees of injury based upon the number and extent to which leaves were injured; 4: intermediate degrees of injury based upon the number and extent to which leaves were injured; 5: the plant was dead; conditions: 2500 ppm spray, after ten days
measured-quantity: POST-Emergent Herbicidal (phytotoxicity rating), Tomato
Answer as a number with no unit attached.

Some molecules with known POST-Emergent Herbicidal (phytotoxicity rating), Tomato results, for comparison:
{"columns": ["smiles-structure", "number"],
 "data": [
  ["CN(C(=O)C[N+](C)(C)C)C(=O)Oc1cccc2c1OC(C)(C)C2", 2],
  ["CN(C(=O)C[N+]1(C)CCCC1)C(=O)Oc1cccc2c1OC(C)(C)C2", 1],
  ["CN(C(=O)C[n+]1ccn(C)c1)C(=O)Oc1cccc2c1OC(C)(C)C2", 1],
  ["CCCCCCCCCCCC[N+](C)(C)CC(=O)N(C)C(=O)Oc1cccc2c1OC(C)(C)C2", 2],
  ["CN(C(=O)C[n+]1ccc(N(C)C)cc1)C(=O)Oc1cccc2c1OC(C)(C)C2", 1]
]}

Next item in the queue.
Reported POST-Emergent Herbicidal (phytotoxicity rating), Tomato for CCCCCCCCCCCCCCCCCC[N+](C)(C)CC(=O)N(C)C(=O)Oc1cccc2c1OC(C)(C)C2 : what is it? 1
